Compiled IC50 measurements on human HIF-PHD2 (Homo sapiens) taken from the literature.
So basically, the class depends on measured IC50, and the ranges are LOW (below 20 nM), MEDIUM (20 nM to below 50 nM), HIGH (50 nM or more)

-- ask // return the class label for `O=C(O)c1cnn(-c2nc(O)c3c(cnn3Cc3cccc(-c4ccccc4)c3)n2)c1`
-- reply MEDIUM

-- ask What about CCC1CCCCN1c1ncc2c(O)c(C(=O)NCC(=O)O)c(=O)n(C)c2n1 (stereo not drawn) ?
-- reply HIGH

-- ask Same thing, different molecule: Cc1ccc(C(C)n2ncc3nc(-n4cc(C(=O)O)cn4)nc(O)c32)cc1 (stereo not drawn)
-- reply HIGH

-- ask Now the molecule `Cc1ccc(C)c([C@H](C)n2ncc3nc(-n4cc(C(=O)O)cn4)nc(O)c32)c1`
-- reply HIGH

-- ask And what about the molecule `COc1ccc(Cn2ncc3nc(-n4cc(C(=O)O)cn4)nc(O)c32)cc1` ?
-- reply MEDIUM

-- ask // repeat for `NC(=O)c1ccc(Cn2c3c(c(O)c(C(=O)NCC(=O)O)c2=O)COCC3)cc1` and report
-- reply MEDIUM

-- ask Do the same for `C[C@@H](c1ccc(C(F)(F)F)cc1)n1nc(C2CC2)c2nc(-n3cc(C(=O)O)cn3)nc(O)c21` please
-- reply HIGH

-- ask Moving on to the next molecule: `O=C(O)c1cnn(-c2nc(O)c3c(cnn3C[C@H]3CC[C@@H](C(F)(F)F)CC3)n2)c1`
-- reply HIGH

-- ask Then `O=C(O)c1cnn(-c2nc(O)c3c(cnn3Cc3ccc(-c4ccccc4C(F)(F)F)cc3)n2)c1` ?
-- reply LOW

-- ask Now try `COc1ccc(Cn2cc3nc(-n4cc(C(=O)O)cn4)nc(O)c3n2)cc1` .
-- reply LOW

-- ask Entry `Cn1nc(Cc2ccccc2)c2nc(-n3cc(C(=O)O)cn3)nc(O)c21` please
-- reply HIGH

-- ask Again, but for `O=C(O)c1cnn(-c2nc(O)c3c(cnn3Cc3c(F)cc(-c4ccccc4)cc3F)n2)c1`
-- reply LOW

-- ask What do we get for CCC1CCCC(n2ncc3nc(-n4cc(C(=O)O)cn4)nc(O)c32)C1 (stereo not drawn) ?
-- reply MEDIUM

-- ask And what about the molecule CCC1CCC(C)N(c2ncc3c(O)c(C(=O)NCC(=O)O)c(=O)n(C)c3n2)C1 (stereo not drawn) ?
-- reply HIGH

-- ask Cool, now CC(c1cc(F)cc(Cl)c1)n1ncc2nc(-n3cc(C(=O)O)cn3)nc(O)c21 (stereo not drawn)
-- reply HIGH

-- ask Consider next the molecule Cc1cc(C(C)n2ncc3nc(-n4cc(C(=O)O)cn4)nc(O)c32)ccc1Cl (single isomer, unassigned) in the same way.
-- reply MEDIUM

-- ask # iterate: `COc1ccccc1-c1ccc([C@H](C)n2ncc3nc(-n4cc(C(=O)O)cn4)nc(O)c32)cc1`
-- reply LOW

-- ask Would you mind doing `O=C(O)c1cnn(-c2nc(O)c3c(cnn3Cc3cccc4ccccc34)n2)c1` as well?
-- reply MEDIUM

-- ask And `O=C(O)CNC(=O)c1c(O)c2c(n(Cc3cc[nH]n3)c1=O)COC2` ?
-- reply LOW

-- ask Can you handle `C[C@@H](NC(=O)C1=C(O)c2cc(Cl)ccc2C(C)(C)C1=O)C(=O)O` next?
-- reply HIGH

-- ask Another molecule to look at: `N#Cc1ccc(Cn2c3c(c(O)c(C(=O)NCC(=O)O)c2=O)COCC3)cc1`
-- reply LOW

-- ask Note, next up: `Cn1c(=O)c(C(=O)NCC(=O)O)c(O)c2sc3ccccc3c21`
-- reply LOW

-- ask Then `COc1ccc([C@@H](NC(=O)c2cnc(C(=O)NC[C@@H](O)C(=O)O)nc2O)c2ccccc2)cc1` ?
-- reply LOW

-- ask Would you mind doing `O=C(O)c1cnn(-c2nc(O)c3c(cnn3Cc3ccc(Cl)cc3F)n2)c1` as well?
-- reply HIGH

###

Compiled IC50 measurements on human HIF-PHD2 (Homo sapiens) taken from the literature.
The reply should contain only the number, in nM.

-- ask Give the reported IC50 for O=C(O)CNC(=O)c1c(O)c2c(n(Cc3nc4ccccc4s3)c1=O)C1CCC2C1 (racemic) (system: human HIF-PHD2 (Homo sapiens)).
-- reply 43

-- ask Same read-out for `O=C(O)c1cnn(-c2nc(O)c3c(cnn3CCCCc3ccc(Cl)cc3)n2)c1` ?
-- reply 12

-- ask Another compound to check: `Cn1c(=O)c(C(=O)NCC(=O)O)c(O)c2cnc(C3CC3)nc21`
-- reply 3.9

-- ask // repeat for `O=C(O)CNC(=O)c1c(O)c2c(n(Cc3ccccc3)c1=O)COC2` and report
-- reply 9.2

-- ask And `N#Cc1cccc(Cn2c3c(c(O)c(C(=O)NCC(=O)O)c2=O)COC3)c1` ?
-- reply 2.5

-- ask Try this compound too: CC(C)C(c1ccc(C(F)(F)F)cc1)n1ncc2nc(-n3cc(C(=O)O)cn3)nc(O)c21 (single isomer, unassigned)
-- reply 77

-- ask Follow-up entry: `O=C(O)CNC(=O)c1c(O)c2cccc(-c3ccc(Cl)cc3)c2oc1=O`
-- reply 150

-- ask And for `O=C(O)c1cnn(-c2nc(O)c3c(cnn3CCCN(c3ccccc3)c3ccccc3)n2)c1` ?
-- reply 23

-- ask Okay, and `O=C(N[C@H]1C[C@@H]1C(=O)O)c1cc(O)c(C(=O)NC(c2ccccc2)c2ccccc2)cn1` ?
-- reply 6.69

-- ask Try this compound too: `Cn1c(=O)c(C(=O)NCC(=O)O)c(O)c2cnc(-c3ccccc3N3CCOCC3)nc21`
-- reply 2.9

###

The entries below pair compounds with pIC50 values for human HIF-PHD2 (Homo sapiens, UniProt Q9GZT9), as found in several publications.
pIC50: −log10 of the molar value.
Quick rule for you: pIC50 at 7 or higher means true, lower means false.

-- ask Does `Cn1c(=O)c(C(=O)NCC(=O)O)c(O)c2cc(-c3cccs3)nnc21` have a reported pIC50 of at least 7?
-- reply true

-- ask Can you handle `C[C@@H](c1ccccc1Cl)n1ncc2nc(-n3cc(C(=O)O)cn3)nc(O)c21` next?
-- reply false

-- ask And the next one, `O=C(O)CNC(=O)c1c(O)c2c(n(Cc3ccc4ccccc4c3)c1=O)CCOC2` ?
-- reply true

-- ask Query CCC(c1cc(F)cc(F)c1)n1ncc2nc(-n3cc(C(=O)O)cn3)nc(O)c21 (stereo not drawn) next
-- reply true

-- ask Now consider `O=C(CCNC(=O)c1ncc(C(=O)NC(c2ccccc2)c2ccccc2)c(O)n1)OCCN1CCOCC1` .
-- reply true

-- ask Please do the same for `O=C(O)CNC(=O)c1c(O)c2cccc(Br)c2oc1=O` as well.
-- reply false

-- ask Same lookup for `CNC(=O)C1=C(O)c2cc(Cl)ccc2C(C)(C)C1=O` , please.
-- reply false

###

pIC50 values for human HIF-PHD2 (Homo sapiens), compiled from several publications.
pIC50 field: float, defined as -log10 of concentration (mol/L).

-- ask What does the record list as pIC50 for `O=C(O)c1cnn(-c2nc(O)c3c(cnn3CC[C@H]3CC[C@H](c4ccccc4)CC3)n2)c1` ?
-- reply 7.72

-- ask Here is the next compound: `O=C(O)c1cnn(-c2nc(O)c3c(cnn3Cc3cc(-c4ccccc4)ccc3F)n2)c1`
-- reply 7.52

-- ask Consider next the compound `O=C(O)CNC(=O)c1c(O)c2c(n(Cc3ccc(C(F)(F)F)nc3)c1=O)COCC2` in the same way.
-- reply 7.70

-- ask Also check `O=C(O)CNC(=O)c1c(O)c2cccc(-c3cc(F)c(F)c(F)c3)c2oc1=O`
-- reply 6.82

###

Compiled pIC50 measurements on human HIF-PHD2 (Homo sapiens, UniProt Q9GZT9) taken from the literature.
pIC50: −log10 of the molar value.
Tag: Criterion met if measured pIC50 is not below 8, Criterion not met if it is.

-- ask Tell me whether pIC50 is at least 8 here: `O=C(O)CNC(=O)c1c(O)c2c(n(Cc3cncc(F)c3)c1=O)COC2`
-- reply Criterion met

-- ask Same lookup for CCC(c1ccc(Cl)cc1)n1ncc2nc(-n3cc(C(=O)O)cn3)nc(O)c21 (single isomer, unassigned) , please.
-- reply Criterion not met

-- ask Entry `COc1ccc(C(NC(=O)c2cnc(C(=O)NCCC(=O)O)nc2O)c2ccc(OC)nc2)cn1` please
-- reply Criterion met

-- ask Also O=C(O)c1cnn(-c2nc(O)c3c(cnn3C(c3cccc(Cl)c3)C3CC3)n2)c1 (stereo not shown) , if possible.
-- reply Criterion not met

-- ask Same lookup for `O=C(O)CNC(=O)c1c(O)c2c(n(Cc3cncs3)c1=O)COCC2` , please.
-- reply Criterion not met

-- ask Next: `O=C(O)c1cnn(-c2nc(O)c3nn(Cc4ccc(Cl)c(Cl)c4)cc3n2)c1`
-- reply Criterion met

-- ask Ok, now `Cc1cccc([C@H](C)n2ncc3nc(-n4cc(C(=O)O)cn4)nc(O)c32)c1`
-- reply Criterion not met

-- ask Entry to check: `Cn1c(=O)c(C(=O)NCC(=O)O)c(O)c2cnc(-c3ccnc4ccccc34)nc21`
-- reply Criterion met

-- ask Query `Cc1csc2c(O)c(C(=O)N[C@@H](C)C(=O)O)c(=O)n(C)c12` next
-- reply Criterion not met

-- ask Can you handle `O=C(O)c1cnn(-c2nc(O)c3c(cnn3CCc3ccc(Cl)c(Cl)c3)n2)c1` next?
-- reply Criterion not met

-- ask Then `O=C(O)c1cnn(-c2nc(O)c3c(cnn3C[C@H]3CC[C@H](Oc4ccc(C(F)(F)F)cc4)CC3)n2)c1` ?
-- reply Criterion not met
